- SYSTEM: T1, Sla1-2, P32790
- T1 sequence (P32790 60-140, looked up): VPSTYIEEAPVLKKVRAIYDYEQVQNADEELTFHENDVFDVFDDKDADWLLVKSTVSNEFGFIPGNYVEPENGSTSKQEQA
- MEASUREMENT_NOTES: SPOT array
- MEASUREMENT_PARAMETERS: median of control spots 712
Here the recorded SPOT intensity is given for each entry.
Number only, please.

>>> numeric_result("TPRLSLPRLPNKHHW")
0

Data request: Suppose we examine the binder LLGRKRPVMERVVDI ; what SPOT intensity value has been reported?
Data returned: 5

Data request: Suppose we examine the binder PSTMDFPKLPSFQNS ; what SPOT intensity value has been reported?
Data returned: 7

Data request: Suppose we examine the binder HHNRRKPLEVYFKAT ; what SPOT intensity value has been reported?
Data returned: 0

Data request: Suppose we examine the binder LTRRFPFLFPFDTRM ; what SPOT intensity value has been reported?
Data returned: 1

Data request: Suppose we examine the binder KDKKTKPTPPPKPSH ; what SPOT intensity value has been reported?
Data returned: 1

Data request: Suppose we examine the binder KDKSRPPRPPPKPLH ; what SPOT intensity value has been reported?
Data returned: 0

Data request: Suppose we examine the binder VPKEPAPAPPPEPDM ; what SPOT intensity value has been reported?
Data returned: 0

Data request: Suppose we examine the binder RKRRTHLRLPLIRSN ; what SPOT intensity value has been reported?
Data returned: 0

Data request: Suppose we examine the binder TSFKGRPKPPKTLKH ; what SPOT intensity value has been reported?
Data returned: 0

Data request: Suppose we examine the binder RMVRRRPLRVQFSAR ; what SPOT intensity value has been reported?
Data returned: 37

Data request: Suppose we examine the binder VLRFLGFPLPIFEKG ; what SPOT intensity value has been reported?
Data returned: 0

Data request: Suppose we examine the binder RTIRKLPLMSLSEYF ; what SPOT intensity value has been reported?
Data returned: 1

Data request: Suppose we examine the binder GRLRPKRIAPWHLIQ ; what SPOT intensity value has been reported?
Data returned: 0

Data request: Suppose we examine the binder RKNRAPPQRPRFNRD ; what SPOT intensity value has been reported?
Data returned: 3

Reference source: paper PMC2756588
